- protocol-summary: Biodistribution in HEK-uPAR xenografted nude mice
- study-conditions: CD1 nude, mouse, HEK-uPAR xenograft, 0.5 nmol/mouse, total radioactivity, HEK-uPAR xenograft uptake, 1 h p.i.; decay-corrected
measured-metric: tissue uptake at 1 h

[ask] Item CC(C)C[C@H](NC(=O)[C@H](Cc1ccc(O)cc1)NC(=O)[C@@H](CCCNC(=N)N)NC(=O)[C@@H](CO)NC(=O)[C@H](Cc1ccccc1)NC(=O)[C@H](CC1CCCCC1)NC(=O)[C@H](CC(=O)O)NC(=O)CN1CCN(CC(=O)O)CCN(CC(=O)O)CCN(CC(=O)O)CC1)C(=O)N[C@@H](Cc1c[nH]c2ccccc12)C(=O)N[C@@H](CO)C(N)=O [[^177Lu]Lu-DOTA-AE105, metal not drawn] : provide tissue uptake at 1 h
[reply] 1.9 %ID/g

---

Readings of Mouse blood plasma stability, intact radiopeptide for the listed compounds
- Type: in vitro ADME
- study-conditions: 1 h, 1 µM
Answer with a number only, understood to be in %.

[ask] Item Cc1ccc(CCCC(=O)NCCOCCOCCOCCOCCOCCC(=O)NCCCC[C@H](NC(=O)CN2CCN(CC(=O)O)CCN(CC(=O)O)CCN(CC(=O)O)CC2)C(=O)N[C@@H](CC(=O)O)C(=O)N[C@@H](CC2CCCCC2)C(=O)N[C@@H](Cc2ccccc2)C(=O)N[C@H](CO)C(=O)N[C@H](CCCNC(=N)N)C(=O)N[C@@H](Cc2ccc(O)cc2)C(=O)N[C@@H](CC(C)C)C(=O)N[C@@H](Cc2c[nH]c3ccccc23)C(=O)N[C@@H](CO)C(N)=O)cc1 [[^177Lu]Lu-uPAR-18, metal not drawn] : provide Mouse blood plasma stability, intact radiopeptide
[reply] 100

[ask] Item Cc1ccc(CCCC(=O)NCCOCCOCCOCCOCCC(=O)NCCCC[C@H](NC(=O)CC[C@H](C(=O)O)N2CCN(CC(=O)O)CCN(CC(=O)O)CCN(CC(=O)O)CC2)C(=O)N[C@@H](CC(=O)O)C(=O)N[C@@H](CC2CCCCC2)C(=O)N[C@@H](Cc2ccccc2)C(=O)N[C@H](CO)C(=O)N[C@H](CCCNC(=N)N)C(=O)N[C@@H](Cc2ccc(O)cc2)C(=O)N[C@@H](CC(C)C)C(=O)N[C@@H](Cc2c[nH]c3ccccc23)C(=O)N[C@@H](CO)C(N)=O)cc1 [[^177Lu]Lu-uPAR-17, metal not drawn] : provide Mouse blood plasma stability, intact radiopeptide
[reply] 100

For the next question, use this compound.
[ask] Item Cc1ccc(CCCC(=O)NCCOCCOCCOCCOCCC(=O)NC[C@H](NC(=O)CN2CCN(CC(=O)O)CCN(CC(=O)O)CCN(CC(=O)O)CC2)C(=O)N[C@@H](CC(=O)O)C(=O)N[C@@H](CC2CCCCC2)C(=O)N[C@@H](Cc2ccccc2)C(=O)N[C@H](CO)C(=O)N[C@H](CCCNC(=N)N)C(=O)N[C@@H](Cc2ccc(O)cc2)C(=O)N[C@@H](CC(C)C)C(=O)N[C@@H](Cc2c[nH]c3ccccc23)C(=O)N[C@@H](CO)C(N)=O)cc1 [[^177Lu]Lu-uPAR-14, metal not drawn] : provide Mouse blood plasma stability, intact radiopeptide
[reply] 100

---

- protocol-summary: in vivo
- study-conditions: CD1 nude, mouse, 0.5 nmol/mouse, total radioactivity, Bone uptake
measured-metric: tissue uptake at 4 h (%ID/g)
Answer with a number only, understood to be in %ID/g.

[ask] Item Cc1ccc(CCCC(=O)NCCOCCOCCOCCOCCC(=O)NCCCC[C@H](NC(=O)CN2CCN(CC(=O)O)CCN(CC(=O)O)CCN(CC(=O)O)CC2)C(=O)N[C@@H](CC(=O)O)C(=O)N[C@@H](CC2CCCCC2)C(=O)N[C@@H](Cc2ccccc2)C(=O)N[C@H](CO)C(=O)N[C@H](CCCNC(=N)N)C(=O)N[C@@H](Cc2ccc(O)cc2)C(=O)N[C@@H](CC(C)C)C(=O)N[C@@H](Cc2c[nH]c3ccccc23)C(=O)N[C@@H](CO)C(N)=O)cc1 [[^177Lu]Lu-uPAR-11, metal not drawn] : provide tissue uptake at 4 h
[reply] 0.73
